- targetOrSystem: human COX I (Homo sapiens)
- Construct: A 2.0 kb fragment containing the coding region; made in house; host or cells: SF9 insect cells (baculovirus, transfer vector pVL1393)
- Sequence (P23219 24-599): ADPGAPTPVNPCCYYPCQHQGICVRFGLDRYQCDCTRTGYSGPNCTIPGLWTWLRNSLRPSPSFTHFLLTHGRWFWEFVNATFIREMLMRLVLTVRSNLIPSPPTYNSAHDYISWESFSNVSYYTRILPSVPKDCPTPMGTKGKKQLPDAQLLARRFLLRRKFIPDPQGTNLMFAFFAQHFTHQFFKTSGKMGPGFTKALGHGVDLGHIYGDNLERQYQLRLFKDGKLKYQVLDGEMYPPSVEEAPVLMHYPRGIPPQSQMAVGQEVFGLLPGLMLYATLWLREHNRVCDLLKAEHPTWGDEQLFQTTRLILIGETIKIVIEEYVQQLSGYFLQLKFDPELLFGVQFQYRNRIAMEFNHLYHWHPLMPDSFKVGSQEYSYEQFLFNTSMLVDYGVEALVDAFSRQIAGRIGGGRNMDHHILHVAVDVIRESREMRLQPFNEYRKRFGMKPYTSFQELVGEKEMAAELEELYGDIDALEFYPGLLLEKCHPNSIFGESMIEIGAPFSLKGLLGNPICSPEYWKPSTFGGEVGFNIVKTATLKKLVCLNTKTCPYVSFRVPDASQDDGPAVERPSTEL
- methodNotes: Assay for COX I activity in vitro (PGE2 ELISA, recombinant enzyme)
- Format: biochemical
pIC50: −log10 of the molar value.
measuredProperty: pIC50

// lookup pIC50 for CS(=O)(=O)c1ccc(-c2cscc2-c2ccc(F)cc2)cc1
< 4.00

* * *

Give measured melting point for each item. Keep answers brief.

# batch size: 4; output melting point per entry
1. Cc1cc(F)ccc1-c1cscc1-c1ccc(S(C)(=O)=O)cc1
2. CS(=O)(=O)c1ccc(-c2cocc2-c2ccc(F)cc2)cc1
3. NS(=O)(=O)c1ccc(-c2cscc2-c2ccc(F)cc2)cc1
4. CS(=O)(=O)c1ccc(-c2cscc2-c2ccc(F)nc2)cc1

1. 158 to 160 °C
2. 160 to 161 °C
3. 194 to 195 °C
4. 190 to 191 °C (dec.)

* * *

- targetOrSystem: human COX II (Homo sapiens, UniProt P35354)
- Construct: A 2.0 kb fragment containing the coding region; made in house; host or cells: SF9 insect cells (baculovirus, transfer vector pVL1393)
- Sequence (P35354 18-604): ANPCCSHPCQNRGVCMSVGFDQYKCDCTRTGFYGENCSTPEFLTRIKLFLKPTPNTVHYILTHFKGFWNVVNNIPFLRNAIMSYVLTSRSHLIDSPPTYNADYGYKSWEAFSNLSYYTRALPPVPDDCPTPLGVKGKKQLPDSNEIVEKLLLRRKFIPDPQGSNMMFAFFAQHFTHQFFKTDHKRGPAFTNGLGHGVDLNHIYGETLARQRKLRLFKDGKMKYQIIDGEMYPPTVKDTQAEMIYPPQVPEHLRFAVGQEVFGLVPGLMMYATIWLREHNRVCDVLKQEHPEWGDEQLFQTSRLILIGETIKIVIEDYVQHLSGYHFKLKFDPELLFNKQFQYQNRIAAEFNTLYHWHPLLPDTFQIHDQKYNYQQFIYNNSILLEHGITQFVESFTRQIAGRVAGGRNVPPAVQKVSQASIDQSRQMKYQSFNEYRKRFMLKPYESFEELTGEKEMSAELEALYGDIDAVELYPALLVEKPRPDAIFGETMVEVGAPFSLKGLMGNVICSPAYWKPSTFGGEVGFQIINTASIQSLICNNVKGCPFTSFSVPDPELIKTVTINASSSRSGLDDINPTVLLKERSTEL
- methodNotes: Assay for COX II activity in vitro (PGE2 ELISA, recombinant enzyme)
- Type: biochemical
- reportedConditions: human COX II enzyme (footnote *); read-out: COX II ID50
measuredProperty: pIC50
Give bare numbers, as −log10 of the molar value.

Quick check: pIC50 of CS(=O)(=O)c1ccc(-c2cocc2-c2ccc(F)cc2)cc1 [Example 13] ?
5.72

* * *

- targetOrSystem: Murine COX I (Mus musculus, UniProt P22437)
- Construct: A 2.0 kb fragment containing the coding region
- Sequence (P22437 27-602): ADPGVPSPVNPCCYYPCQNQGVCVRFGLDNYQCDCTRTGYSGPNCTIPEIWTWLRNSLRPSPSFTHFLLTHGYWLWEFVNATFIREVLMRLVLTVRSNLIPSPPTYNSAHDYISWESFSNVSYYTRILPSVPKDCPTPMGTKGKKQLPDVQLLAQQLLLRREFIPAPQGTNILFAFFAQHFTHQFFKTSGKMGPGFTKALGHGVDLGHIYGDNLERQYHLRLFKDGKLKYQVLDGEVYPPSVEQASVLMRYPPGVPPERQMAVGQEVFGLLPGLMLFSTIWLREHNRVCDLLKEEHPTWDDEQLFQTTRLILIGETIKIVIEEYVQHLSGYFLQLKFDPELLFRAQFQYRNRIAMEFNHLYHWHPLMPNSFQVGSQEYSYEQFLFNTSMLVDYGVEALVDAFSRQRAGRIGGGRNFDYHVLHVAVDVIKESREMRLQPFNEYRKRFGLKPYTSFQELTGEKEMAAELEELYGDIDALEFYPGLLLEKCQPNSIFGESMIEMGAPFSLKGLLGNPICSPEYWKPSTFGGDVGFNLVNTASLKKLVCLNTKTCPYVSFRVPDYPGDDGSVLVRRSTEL
- methodNotes: Assay for COX I activity in vitro (PGE2 ELISA, recombinant enzyme)
- reportedConditions: read-out: Murine COX I ID50
Task for the reader: assign each of the following compounds its reported IC50.

1) Cc1cc(F)ccc1-c1cscc1-c1ccc(S(C)(=O)=O)cc1 [Example 15] :: 8.5 µM
2) Cc1ccc(-c2cscc2-c2ccc(S(C)(=O)=O)cc2)cc1 [Example 11] :: > 100 µM

Each compound below has a recorded value; state its IC50.
1. CCOC(=O)c1scc(-c2ccc(S(C)(=O)=O)cc2)c1-c1ccc(F)cc1 [Example 5]
2. CS(=O)(=O)c1ccc(-c2c(C(=O)O)sc(C(=O)O)c2-c2ccc(F)cc2)cc1 [Example 9]
3. COc1ccc(-c2c(-c3ccc(S(C)(=O)=O)cc3)csc2Br)cc1 [Example 7]
4. COc1ccc(-c2cscc2-c2ccc(OC)cc2)cc1 [Example 4, 3,4-Bis(4-methoxyphenyl)thiophene]

1. > 3 µM
2. > 100 µM
3. < 0.1 µM
4. 0.3 µM

# per-item lookup of IC50; items listed below
1. COc1ccc(-c2cscc2-c2ccc(S(C)(=O)=O)cc2)cc1 [Example 6]
2. CS(=O)(=O)c1ccc(-c2cscc2-c2ccccc2)cc1 [Example 10]
3. CS(=O)(=O)c1ccc(-c2csc(Br)c2-c2ccc(F)cc2)cc1 [Example 2]
4. CS(=O)(=O)c1ccc(-c2cscc2-c2ccc(F)nc2)cc1 [Example 14]
5. CCOC(=O)c1sc(C(=O)O)c(-c2ccc(F)cc2)c1-c1ccc(S(C)(=O)=O)cc1 [Example 8]

< 0.3 µM
> 10 µM
3.5 µM
> 10 µM
> 100 µM
